Recorded values, source the supplement of paper PMC8183993.

So I've got a bunch of molecules here, and I need their nuclei count values.
system: U2OS; assay: nuclei count (viability) relative to DMSO (% of DMSO); higher = more viable cells; conditions: 10 µM; 24 h
Counter-ions that a name gives are not always drawn. In all, about 3,200 compounds were measured (“nuclei count (viability) relative to DMSO”: median about 99, lowest 2% from about 16 on). For the sample, the lowest values were picked, then their nearest neighbours and some compounds at random.
Output: the number by itself.

Requested read-out: nuclei count. Entry: `C=CC(=O)Nc1cccc(Oc2nc(Nc3ccc(N4CCN(C)CC4)cc3)ncc2Cl)c1`
6.24

Look up nuclei count: `CCCCCCCc1ccc(CCc2cccc(O)c2C(=O)O)cc1`
7.35

Any idea what nuclei count was measured for CC1C(=O)OC2C(O)C34C5CC(C(C)(C)C)C36C(OC(=O)C6O)OC4(C(=O)O5)C12O (stereo not drawn) [Ginkgolide B] ?
95

Item under review: `C=CC(=O)Nc1cccc(Oc2nc(Nc3ccc(N4CCN(C)CC4)cc3OC)ncc2Cl)c1` . Reported nuclei count?
107

Value lookup for nuclei count; key = CCCCCCCCc1ccc(CCC(N)(CO)CO)cc1 [Fingolimod (FTY720)]
18.9

Recorded nuclei count for NCCCCCc1c[nH]cn1 [Impentamine dihydrobromide] , please?
90.5

Look up nuclei count: `COc1c(OCCCN2CCOCC2)ccc2c1N=C(NC(=O)c1cnc(N)nc1)N1CCN=C21`
93.2

Any idea what nuclei count was measured for CC/C=C\C/C=C\C/C=C\C/C=C\C/C=C\C/C=C\CCC(=O)O [Docosa-4Z,7Z,10Z,13Z,16Z,19Z-hexaenoic acid] ?
96.9

# input molecule: COC(C)(C)CCCC(C)C/C=C/C(C)=C/C(=O)O (stereo not drawn) [Methoprene acid] ; wanted: its nuclei count
105

Sample O=C(c1cc(O)c(O)c(O)c1)c1ccc(O)c(O)c1O [Exifone] — what was its nuclei count?
94.1

Name the recorded nuclei count for `C=CC(=O)Nc1ccc2ncnc(Nc3cccc(Br)c3)c2c1` .
79.2

# input molecule: OC(c1cc(C(F)(F)F)nc2c(C(F)(F)F)cccc12)C1CCCCN1 (stereo not drawn) [Mefloquine hydrochloride] ; wanted: its nuclei count
10.7

Quick one: nuclei count of CCCNC(=O)N1N=C(c2ccc(N)cc2)c2cc3c(cc2C1C)OCO3 (stereo not drawn) ?
93

Fill in: nuclei count of COc1cccc2c1C(=O)c1c(O)c3c(c(O)c1C2=O)C[C@@](O)(C(C)=O)C[C@@H]3O[C@H]1C[C@H](N)[C@H](O)[C@H](C)O1 [Daunorubicin HCl (Daunomycin HCl)] is ___
10.2

State the recorded nuclei count for this entry: CC[N+](CC)(CC)CC(=O)Nc1c(C)cccc1C [QX 314 chloride]
104

GET /values?readout=nuclei count&item= `CC(Oc1ccc(O)cc1)(P(=O)(O)O)P(=O)(O)O`
105

So what's the measured nuclei count for this one? O=c1nc2ccccc2c2n1CC(CN1CCN(c3ccccc3)CC1)N2 (stereo not drawn)
100

What does the data say about its nuclei count? Entry: OCc1ccc(O[C@@H]2O[C@H](CO)[C@@H](O)[C@H](O)[C@H]2O)cc1 [Gastrodin (Gastrodine)]
94.5

====

Could you please report measured nuclei count for the items listed next?
system: U2OS; assay: nuclei count (viability) relative to DMSO (% of DMSO); higher = more viable cells; settings: 10 µM; 24 h
The full ranking holds about 3,200 compounds; the median of “nuclei count (viability) relative to DMSO” is about 99, and the lowest 2% start at about 16. Shown is part of a subset that was picked to be rich in the lowest values.

Look at this compound and give its reported nuclei count. `NC1CCN(c2cccc(Cl)n2)CC1`
103

Could you tell me which nuclei count is on file for Cn1cnc(N)c2ncnc1-2 [3-Methyladenine] ?
104

What does the data say about its nuclei count? Entry: `Cc1c(NC(=O)N2CCOCC2)ccc2c1c1ccccc1n2C(C)C`
94.6

For the compound shown here, Cc1ccc(NC(=O)c2ccc(CN3CCN(C)CC3)cc2)cc1Nc1nccc(-c2cccnc2)n1 [Imatinib] , give the reported nuclei count.
101

// lookup nuclei count for `Cc1nc2ccc(NC(=O)Nc3ccnc4cccnc34)cc2o1`
99.6

Could you tell me which nuclei count is on file for `Nc1[nH]nc2nc3ccccc3nc12` ?
98.5

Fill in the blank: the reported nuclei count of C[C@]12CC[C@@H](O)C[C@@H]1CC[C@@H]1[C@@H]2CC[C@]2(C)C=CC[C@@H]12 [3a, 5a-Androstenol] is ____.
90.5

Entry COC(=O)[C@@H]1CC2=CC(=O)CC[C@]2(C)[C@@]23O[C@@H]2C[C@@]2(C)[C@@H](CC[C@@]24CCC(=O)O4)[C@H]13 [Eplerenone] : reported nuclei count = ?
104

May I ask what nuclei count has been recorded for O=C(/C=C/c1ccc(O)cc1)CC(=O)/C=C/c1ccc(O)cc1 [bis-demethoxycurcumin] ?
93.2

====

tested on: U2OS; assay: nuclei count (viability) relative to DMSO (% of DMSO); higher = more viable cells; conditions: 10 µM; 24 h
Over roughly 3,200 compounds, “nuclei count (viability) relative to DMSO” has its median near 99; the lowest 2% begin near 16. What follows is part of a selection rich in the lowest values, with near analogues and random picks from the rest.
ATTRIBUTE MEASURED: nuclei count
Kindly provide the number alone.

Reported nuclei count for C[n+]1cc2c3c(ccc2c2ccc4cc5c(cc4c21)OCO5)OCO3 [Sanguinarine chloride] : what is it?
12

What measured nuclei count goes with CCCC[P+](CCCC)(CCCC)Cc1ccc(NC(=O)C(Cc2ccc3ccccc3c2)NC(=NC2CCCCC2)NC2CCCCC2)cc1 (centres undefined) ?
94.1

Need nuclei count, item C1=N/C2=N/c3ccc(OCCN4CCCC4)c(c3)COC/C=C/COCc3cccc(c3)C(=C1)N2 [Pacritinib (SB1518)]
16.7

Which nuclei count is listed for `CCCCCS(=O)(=O)CCCCCCCCCCn1c(-c2ccc(O)cc2)c(C)c2cc(O)ccc21` ?
105

====

Assignment: determine reported nuclei count for the given compounds.
test system: U2OS; assay: nuclei count (viability) relative to DMSO (% of DMSO); higher = more viable cells; conditions: 10 µM; 24 h
Over roughly 3,200 compounds, “nuclei count (viability) relative to DMSO” has its median near 99; the lowest 2% begin near 16. The sample as a whole holds a higher share of the lowest values than the screen did.
Lab note: jot down the number only; don't add units.

For the compound shown here, `COc1cccc(-c2cc(NCc3ccc4c(c3)OCO4)nc(N)n2)c1` , give the reported nuclei count.
19.1

Dear colleague, I am looking for the recorded nuclei count of the following compound: CC(C)C[C@H](NC(=O)[C@H](CCc1ccccc1)NC(=O)CN1CCOCC1)C(=O)N[C@@H](Cc1ccccc1)C(=O)N[C@@H](CC(C)C)C(=O)[C@@]1(C)CO1 [Carfilzomib (PR-171)]
7.25

Find the recorded nuclei count belonging to CNC(=O)c1cc(Oc2ccc(NC(=O)Nc3cc(C(C)(C)C)nn3-c3ccc4ncccc4c3)c(F)c2)ccn1 [DCC-2036 (Rebastinib)] and report it.
70.1

====

tested on: U2OS; assay: nuclei count (viability) relative to DMSO (% of DMSO); higher = more viable cells; details: 10 µM; 24 h
Whole data set: some 3,200 compounds, median “nuclei count (viability) relative to DMSO” near 99, cut for the lowest 2% near 16. Shown is part of a subset that was picked to be rich in the lowest values.
ATTRIBUTE MEASURED: nuclei count
Give a plain numeric answer without units written out.

Report nuclei count for Cc1nnc(-c2ccc3occ(-c4ccc([S+](C)[O-])cc4)c3c2)o1 (stereo not given) please.
112

# nuclei count lookup, item COCCCN1CCC(NC(=O)c2cc(Cl)c(N)c3c2OCC3)CC1 [Prucalopride]
103

nuclei count lookup needed for CCCC[C@@H](C=O)NC(=O)[C@H](CC(C)C)NC(=O)OCc1ccccc1 [Calpeptin] , thanks.
102

Entry `NS(=O)(=O)c1cccc2c1c([N+](=O)[O-])cc1nc(O)c(O)nc12` : reported nuclei count = ?
98.7

Quick one: nuclei count of `CC(C)C[C@H](NC(=O)N1CCCCCC1)C(=O)N[C@H](Cc1cn(C)c2ccccc12)C(=O)N[C@H](Cc1ccccn1)C(=O)O` ?
100

====

test system: U2OS; experiment: nuclei count (viability) relative to DMSO (% of DMSO); higher = more viable cells; conditions: 10 µM; 24 h
Where a name gives a salt, the structure may show the parent alone. The full ranking holds about 3,200 compounds; the median of “nuclei count (viability) relative to DMSO” is about 99, and the lowest 2% start at about 16. Only a selection was taken, and the lowest values are over-represented in it overall.
Would you kindly list nuclei count for each of these compounds?
Reply: number alone, nothing else.

Query: nuclei count; subject: `Cc1cc(Nc2ncc(Cl)c(Nc3ccccc3S(=O)(=O)C(C)C)n2)c(OC(C)C)cc1C1CCNCC1`
14.7

Name the recorded nuclei count for COc1cccc2c1C(=O)c1c(O)c3c(c(O)c1C2=O)C[C@@](O)(C(=O)CO)C[C@@H]3O[C@H]1C[C@H](N)[C@H](O)[C@H](C)O1 [Doxorubicin hydrochloride] .
13

So what does the record say about nuclei count for COc1cccc2c1C(=O)c1c(O)c3c(c(O)c1C2=O)C[C@@](O)(C(=O)CO)C[C@@H]3O[C@H]1C[C@H](N)[C@@H](O)[C@H](C)O1 [Epirubicin HCl] ?
13.2

# nuclei count lookup, item `C[C@H]1C[C@H]2[C@@H]3CCC4=CC(=O)C=C[C@]4(C)[C@H]3C(=O)C[C@]2(C)[C@@]1(O)C(=O)CO`
107

What value of nuclei count has been recorded for this entry: CC1(C)C[C@@H]1C(=O)N/C(=C\CCCCSC[C@H](N)C(=O)O)C(=O)O [Cilastatin sodium]
96.7

So what does the record say about nuclei count for COc1cccc2c1C(=O)c1c(O)c3c(c(O)c1C2=O)C[C@@](O)(C(=O)CO)C[C@@H]3O[C@H]1C[C@H](N)[C@H](O)[C@H](C)O1 [Doxorubicin (Adriamycin)] ?
12.7

What value of measured nuclei count is listed for `O=C(NC[C@H](O)CN1CCc2ccccc2C1)c1ccnc(NC2CCC2)c1` ?
102

Value lookup for nuclei count; key = C[C@H](CC[C@@H]1OC1(C)C)[C@H]1CC[C@H]2[C@@H]3CC=C4C[C@@H](O)CC[C@]4(C)[C@H]3CC[C@]12C [24(S),25-Epoxycholesterol]
107

Give the measured nuclei count of Oc1cc2c(c(Cl)c1O)CCNCC2c1ccccc1 (stereo not given) .
91.2

Param item = `O=C(Nc1ccccc1-c1cn2c(CN3CCNCC3)csc2n1)c1cnc2ccccc2n1` ; retrieve measured nuclei count.
12.2

Please report the recorded nuclei count for `CCCOc1ccn2c(C(C)=O)cc(-c3ccccc3S(C)(=O)=O)c2c1` .
96.4

Fill blank: measured nuclei count of the compound CC1(C)C[C@@H]1C(=O)N/C(=C\CCCCSC[C@H](N)C(=O)O)C(=O)O [Cilastatin] is ____.
91.5

State the recorded nuclei count for this entry: `CC(C)Oc1cc(Nc2nc(N[C@@H](C)c3ccc(F)cn3)ncc2Cl)n[nH]1`
52.7

Tell me the measured nuclei count of `COCC[n+]1c2c(n(Cc3cnccn3)c1C)C(=O)c1ccccc1C2=O` , please.
14.1

nuclei count for `Cn1nc(C(C)(C)C)cc1C(=O)N[C@@H](Cc1cccc(Cl)c1)C(=O)NCC#N` ?
107
